- System: KCL-22
- testName: cell viability (% survival relative to DMSO control, bortezomib = 0%); higher = less cytotoxic
- particulars: 1 nM; 72 h
Each entry below carries its recorded cell viability.
Answer format: numeric, % implied, no suffix.

Solved entries:
CC(C)(O)CNc1nc(Nc2ccnc(C(F)(F)F)c2)nc(-c2cccc(C(F)(F)F)n2)n1 [Enasidenib] | 89.2
N[C@@H](CCC(=O)N[C@@H](CS)C(=O)NCC(=O)O)C(=O)O [Glutathione] | 101
O=[As]O[As]=O (centres undefined) [Arsenic trioxide] | 107

Could you now look at the following compound, please?
Give KCL-22 cell viability for the following compound: NC(CCC(=O)NC(CSCc1ccc(Br)cc1)C(=O)NCC(=O)OC1CCCC1)C(=O)OC1CCCC1 (centres undefined) [S-para-Bromobenzylglutathione cyclopentyl diester]
103

----------
- Tested on: SHI-1
- testName: cell viability (% survival relative to DMSO control, bortezomib = 0%); higher = less cytotoxic
- particulars: 10 nM; 72 h
Each entry below carries its recorded cell viability.
Answer format: numeric, % implied, no suffix.

Supply reported cell viability belonging to this compound: OC[C@H]1N[C@@H](c2c[nH]c3c(O)ncnc23)[C@H](O)[C@@H]1O
95.5

Supply reported cell viability belonging to this compound: CN(C)CCNC(=O)c1cccn2c(=O)c3cc4ccccc4cc3nc12
102

Supply reported cell viability belonging to this compound: O=c1oc2c(cc1O)oc(=O)c1cc(O)c(O)c(O)c12
105

Supply reported cell viability belonging to this compound: Fc1ccc(CNc2ncnc3ccc(F)cc23)cc1
100

Supply reported cell viability belonging to this compound: OCCN(CCO)c1nc(N2CCCCC2)c2nc(N(CCO)CCO)nc(N3CCCCC3)c2n1
113

----------
Each entry below carries its recorded cell viability.
- Test system: KCL-22
- testName: cell viability (% survival relative to DMSO control, bortezomib = 0%); higher = less cytotoxic
- particulars: 10 nM; 72 h
Answer format: numeric, % implied, no suffix.

Solved entries:
COc1cc(/C=C/c2ccc(OC)cc2OC)cc(OC)c1 | 110
CCCC(CCC)C(=O)O | 94.1
OCC(CO)N[C@H]1C[C@](O)(CO)[C@@H](O)[C@H](O)[C@H]1O | 97.1
CCCCCCCCCCCCC/C=C/[C@@H](O)[C@H](CO)N(C)C | 98
Fc1ccc(CNc2ncnc3ccc(F)cc23)cc1 | 113
Nc1ccn([C@@H]2O[C@H](CO)[C@@H](O)C2(F)F)c(=O)n1 | 37.7

Could you now look at the following molecule, please?
Supply reported cell viability belonging to this molecule: C=C1C(=O)O[C@H](CCCCCCCC)[C@H]1C(=O)O
86.8

----------
Each entry below carries its recorded cell viability.
- Test system: myeloid leukemia patient primary cells Pat.7
- testName: cell viability (% survival relative to DMSO control); higher = less cytotoxic
- particulars: 100 nM; 72 h
Structures can show the parent of a compound that is named as a salt.

CC(C)(Cc1ccccc1)NCC(O)c1ccc(O)c(NS(C)(=O)=O)c1 (stereo unspecified) [Zinterol hydrochloride] | 76.6%
O=c1[nH]c(=O)n([C@H]2C[C@H](O)[C@@H](CO)O2)cc1I [Idoxuridine] | 83.4%
Clc1cc(Cl)c(OCC#CI)cc1Cl [Haloprogin] | > 100%
O=C(Oc1cccc(F)c1OC(=O)c1cccc(O)c1)c1cccc(O)c1 [WZB117] | 85.6%
Fc1ccc(CNc2ncnc3ccc(F)cc23)cc1 [Spautin 1] | > 100%

Could you now look at the following compound, please?
Supply reported cell viability belonging to this compound: CCCCCCCCCCCCC/C=C/[C@@H](O)[C@H](CO)N(C)C [N,N-Dimethylsphingosine]
86.3%

----------
- Tested on: LAMA-84
- testName: cell viability (% survival relative to DMSO control, bortezomib = 0%); higher = less cytotoxic
- particulars: 10000 nM; 72 h
Exam item: assign TRUE to entries whose cell viability is below 90% and FALSE to entries at or above 90%. Note that a value of exactly 90% receives FALSE.

Example entries and their recorded answers appear below.
N=C(N)c1ccc(N=NNc2ccc(C(=N)N)cc2)cc1 [Diminazene] | FALSE
CNC(=C[N+](=O)[O-])NCCSCc1ccc(CN(C)C)o1 [Ranitidine] | FALSE
O=c1[nH]c(=O)n([C@H]2C[C@H](O)[C@@H](CO)O2)cc1I [Idoxuridine] | TRUE
CCCCC/C=C\C/C=C\C/C=C\C/C=C\CCCC(=O)C(F)(F)F [Arachidonyl trifluoromethyl ketone] | TRUE
NS(=O)(=O)c1ccc(NC(=O)Cc2ccccc2)cc1 [4-(2-Phenylacetamido)Benzenesulfonamide] | FALSE
CN1CC(=O)N2[C@H](c3ccc4c(c3)OCO4)c3[nH]c4ccccc4c3C[C@@H]2C1=O [Tadalafil] | FALSE

Hello, is cell viability of the following molecule strictly smaller than 90%? Cn1cc(C[C@@H](N)C(=O)O)c2ccccc21 [Indoximod]
FALSE

----------
- Test system: HL-60
- testName: cell viability (% survival relative to DMSO control); higher = less cytotoxic
- particulars: 1 µM; 72 h; co-treatment: pictilisib 100 nM
Where a name gives a salt, the structure may show the parent alone.
measurementKind: cell viability (%)
Answer format: numeric, % implied, no suffix.

CC(=O)N[C@@H](CS)C(=O)O | 101
Cl.OC[C@H]1NC[C@H](O)[C@@H](O)[C@H]1O | 106

Give HL-60 cell viability for the following compound: OCC(CO)N[C@H]1C[C@](O)(CO)[C@@H](O)[C@H](O)[C@H]1O
81.9

Give HL-60 cell viability for the following compound: N=C(N)c1ccc(N=NNc2ccc(C(=N)N)cc2)cc1
97.2

Give HL-60 cell viability for the following compound: CC(C)(Cc1ccccc1)NCC(O)c1ccc(O)c(NS(C)(=O)=O)c1 (configuration not stated) [Zinterol hydrochloride]
90.4

Give HL-60 cell viability for the following compound: CC1Cc2ccccc2N1NC(=O)c1ccc(Cl)c(S(N)(=O)=O)c1 (configuration not stated) [Indapamide]
92.8

Give HL-60 cell viability for the following compound: O=NN(CCCl)C(=O)NCCCl
93.7

Give HL-60 cell viability for the following compound: CC(=O)N1CCN(c2ccc(OC[C@@H]3CO[C@@](Cn4ccnc4)(c4ccc(Cl)cc4Cl)O3)cc2)CC1 (racemic)
111

Give HL-60 cell viability for the following compound: N#Cc1ccc(C2CCCc3cncn32)cc1 (configuration not stated)
113

Give HL-60 cell viability for the following compound: O=C(Cc1cccc(OC(F)(F)F)c1)Nc1ccc(CCCCc2nnc(NC(=O)Cc3ccccn3)s2)nn1
71.1

Give HL-60 cell viability for the following compound: O[C@H]1[C@H](O)[C@@H](O)CN2CC[C@H](O)[C@H]12
92.4

Give HL-60 cell viability for the following compound: CC(C)c1ccc2c(c1)c(SC(C)(C)C)c(CC(C)(C)C(=O)O)n2Cc1ccc(Cl)cc1
98.9

Give HL-60 cell viability for the following compound: CCCC(CCC)C(=O)O
89.6

Give HL-60 cell viability for the following compound: Clc1cc(Cl)c(OCC#CI)cc1Cl
105

----------
- Tested on: HL-60
- testName: cell viability (% survival relative to DMSO control); higher = less cytotoxic
- particulars: 0.001 µM; 72 h; co-treatment: AZD3965 100 nM
Each entry below carries its recorded cell viability.
Answer format: numeric, % implied, no suffix.

O=c1oc2c(cc1O)oc(=O)c1cc(O)c(O)c(O)c12 | 81.9
CCCCCCCCCCCCC/C=C/[C@@H](O)[C@H](CO)N(C)C | 95.3
C=C1NC(=O)c2cc(CN(C)c3ccc(C(=O)N[C@@H](CCC(=O)O)C(=O)O)s3)ccc2N1 | 99.4
Cn1c2cc(S(C)=O)sc2c2cnn(Cc3cccc(N)c3)c(=O)c21 (stereo not given) | 98.7

Could you now look at the following compound, please?
Supply reported cell viability belonging to this compound: Oc1ncc(F)c(O)n1
97.8

----------
- System: KG-1
- testName: cell viability (% survival relative to DMSO control, bortezomib = 0%); higher = less cytotoxic
- particulars: 1000 nM; 72 h
Each entry below carries its recorded cell viability.
Answer format: numeric, % implied, no suffix.

Solved entries:
Cc1cc(O)c2c(c1)C(=O)c1cc(O)cc(O)c1C2=O [Emodin] | 97.3
CC(=O)N[C@@H](CS)C(=O)O [Acetylcysteine] | 88.9
CCCCCCCCCCCCC/C=C/[C@@H](O)[C@H](CO)N(C)C [N,N-Dimethylsphingosine] | 82.7
CCCCCCCNC=O [N-Heptyl-Formamide] | 108

Supply reported cell viability belonging to this compound: O=C(Oc1cccc(F)c1OC(=O)c1cccc(O)c1)c1cccc(O)c1 [WZB117]
90.4

----------
- Test system: LAMA-84
- testName: cell viability (% survival relative to DMSO control, bortezomib = 0%); higher = less cytotoxic
- particulars: 100 nM; 72 h
measurementKind: cell viability (%)
Answer format: numeric, % implied, no suffix.

Solved entries:
CC(C)(F)C[C@H](N[C@@H](c1ccc(-c2ccc(S(C)(=O)=O)cc2)cc1)C(F)(F)F)C(=O)NC1(C#N)CC1 | 106
CC(C)(CCCCCCCCCCC(C)(C)CC(=O)O)CC(=O)O | 99.3
OC[C@H]1N[C@@H](c2c[nH]c3c(O)ncnc23)[C@H](O)[C@@H]1O | 94.7

Could you now look at the following compound, please?
Supply reported cell viability belonging to this compound: O[C@H]1[C@H](O)[C@@H](O)CN2CC[C@H](O)[C@H]12
103

Values were extracted from the supplement of paper PMC8671470.
